Listing of entries alongside the reported kon.
- tested-on: T1, human IL-6 (human, UniProt P05231 30-212)
- T1 construct: IL-6 flowed over captured antibodies
- assay-name: SPR Biacore, supernatant Ab on Protein A chip, 37 C
Field note: include the unit after the figure.

Some solved cases for reference:
Notebook: anti-IL-6 antibody, heavy chain I51T, G66D / light chain M32L, M50D, N52S, M88Q (antibody, IgG1, V domains shown, Full IgG1 (Expi293); VL = variant III) VH: EVQLVESGGGLVQPGGSLRLSCAASGFTFSPFAMSWVRQAPGKGLEWVAKTSPGGSWTYYSDTVTDRFTFSLDTSKSTAYLQMNSLRAEDTAVYYCARQLWGYYALDIWGQGTLVTVSS VL: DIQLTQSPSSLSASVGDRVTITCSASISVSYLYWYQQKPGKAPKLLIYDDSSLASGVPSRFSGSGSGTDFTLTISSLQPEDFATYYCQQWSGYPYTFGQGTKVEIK , kon read as 2.05e+06 M⁻¹ s⁻¹

Notebook: anti-IL-6 antibody, heavy chain T65R, G66D / light chain M32L, M50D, N52S, M88Q (antibody, IgG1, V domains shown, Full IgG1 (Expi293); VL = variant III) VH: EVQLVESGGGLVQPGGSLRLSCAASGFTFSPFAMSWVRQAPGKGLEWVAKISPGGSWTYYSDTVRDRFTFSLDTSKSTAYLQMNSLRAEDTAVYYCARQLWGYYALDIWGQGTLVTVSS VL: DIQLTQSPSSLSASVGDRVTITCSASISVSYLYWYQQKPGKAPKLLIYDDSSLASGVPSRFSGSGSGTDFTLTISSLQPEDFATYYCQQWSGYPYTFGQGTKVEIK , kon read as 1.63e+06 M⁻¹ s⁻¹

Notebook: anti-IL-6 antibody, heavy chain T65W, G66D / light chain M32L, M50D, N52S, M88Q (antibody, IgG1, V domains shown, Full IgG1 (Expi293); VL = variant III) VH: EVQLVESGGGLVQPGGSLRLSCAASGFTFSPFAMSWVRQAPGKGLEWVAKISPGGSWTYYSDTVWDRFTFSLDTSKSTAYLQMNSLRAEDTAVYYCARQLWGYYALDIWGQGTLVTVSS VL: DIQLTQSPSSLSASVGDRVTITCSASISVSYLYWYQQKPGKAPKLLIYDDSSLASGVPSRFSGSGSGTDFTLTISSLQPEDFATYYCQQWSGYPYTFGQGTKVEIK , kon read as 1.19e+06 M⁻¹ s⁻¹

Notebook: anti-IL-6 antibody, heavy chain I51L, G66D / light chain M32L, M50D, N52S, M88Q (antibody, IgG1, V domains shown, Full IgG1 (Expi293); VL = variant III) VH: EVQLVESGGGLVQPGGSLRLSCAASGFTFSPFAMSWVRQAPGKGLEWVAKLSPGGSWTYYSDTVTDRFTFSLDTSKSTAYLQMNSLRAEDTAVYYCARQLWGYYALDIWGQGTLVTVSS VL: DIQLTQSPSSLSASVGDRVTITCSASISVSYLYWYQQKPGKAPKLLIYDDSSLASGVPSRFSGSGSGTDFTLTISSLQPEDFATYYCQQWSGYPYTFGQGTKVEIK , kon read as 1.64e+06 M⁻¹ s⁻¹

Now for the binder whose kon we want.
Notebook: anti-IL-6 antibody, heavy chain T65S, G66D / light chain M32L, M50D, N52S, M88Q (antibody, IgG1, V domains shown, Full IgG1 (Expi293); VL = variant III) VH: EVQLVESGGGLVQPGGSLRLSCAASGFTFSPFAMSWVRQAPGKGLEWVAKISPGGSWTYYSDTVSDRFTFSLDTSKSTAYLQMNSLRAEDTAVYYCARQLWGYYALDIWGQGTLVTVSS VL: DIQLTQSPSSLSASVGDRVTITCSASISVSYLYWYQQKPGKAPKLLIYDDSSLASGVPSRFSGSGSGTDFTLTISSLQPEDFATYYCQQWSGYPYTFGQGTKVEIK , kon read as 1.42e+06 M⁻¹ s⁻¹

This collection of values is drawn from patent US20240209076A1.
